protocol.details: Induction of eIF2alpha phosphorylation in human K562 cells assessed as fold change at 10 uM incubated for 6 hrs by ELISA method
Assay type: cell-based
assay.setup: filed as activator
assay.endpoint: fold change (FC)

Worked examples, 5 compounds total:
>>> df
                              sample_smiles  endpoint_value
0  O=C(Nc1cccc(C(F)(F)F)c1)N[C@H]1CC[C@H](Oc2ccc(C(F)(F)F)cc2)CC1            2.23
1  COc1cccc(Nc2c(N[C@H]3CC[C@H](Oc4ccc(S(C)(=O)=O)cc4)CC3)c(=O)c2=O)c1             0.6
2  CS(=O)(=O)c1ccc(O[C@H]2CC[C@H](Nc3c(Nc4cccc(Cl)c4)c(=O)c3=O)CC2)cc1            0.77
3  N#Cc1ccc(O[C@H]2CC[C@H](Nc3c(Nc4cccc(C(F)(F)F)c4)c(=O)c3=O)CC2)cc1            1.95
4  O=c1c(Nc2cccc(Cl)c2)c(N[C@H]2CC[C@H](Oc3ccc(C(F)(F)F)cc3)CC2)c1=O            0.71

A. O=c1c(Nc2ccc(C(F)(F)F)cc2)c(N[C@H]2CC[C@H](Oc3ccc(C(F)(F)F)cc3)CC2)c1=O
B. N#Cc1ccc(O[C@H]2CC[C@H](Nc3c(Nc4cccc(Cl)c4)c(=O)c3=O)CC2)cc1
C. CC(C)(C)c1cccc(Nc2c(N[C@H]3CC[C@H](Oc4ccc(C#N)cc4)CC3)c(=O)c2=O)c1
Rank descending by fold change (FC). Kindly provide the labels arranged according to the requested ordering.
C, B, A
(C: 1.76, B: 1.11, A: 0.71)

Data origin: ChEMBL document CHEMBL5352383
